cell viability listing for selected compounds.
system: OCI-AML2; experiment: cell viability relative to vehicle control; higher = less cytotoxic; settings: 10 µM; SRSF2 genotype: P95H/wt;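 further: after 48 h exposure read by CellTiter-Glo luminescence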
Counter-ions that a name gives are not always drawn.

{"columns": ["COMPOUND", "cell viability, %"],
 "data": [
  ["CC1(C)S[C@@H]2[C@H](NC(=O)[C@H](N)c3ccc(O)cc3)C(=O)N2[C@H]1C(=O)O [Amoxicillin (Amoxycillin)]", 92.4],
  ["CC(CCC(=O)NCCS(=O)(=O)O)C1CCC2C3C(O)CC4CC(O)CCC4(C)C3CCC12C (centres undefined) [Sodium Tauroursodeoxycholate (TUDC)]", 90.3],
  ["O=C1Cc2cc(CCN3CCN(c4nsc5ccccc45)CC3)c(Cl)cc2N1 [Ziprasidone hydrochloride]", 91.9],
  ["O=c1oc2cc(O)ccc2c2ccc(O)cc12 [S5312 Urolithin A.cdx]", 89]
]}

* * *

In this section, each of the molecules is paired with its reported cell viability.
tested on: OCI-AML2; test: cell viability relative to vehicle control; higher = less cytotoxic; settings: 10 µM; SRSF2 genotype: wt/wt;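 further: after 48 h exposure read by CellTiter-Glo luminescence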
Structures can show the parent of a compound that is named as a salt.

{"columns": ["MOLECULE", "cell viability / %"],
 "data": [
  ["CCOC(=O)c1ccc(NC2CCCCC2)c(N)c1 [Ferrostatin-1 (Fer-1)]", 90.4],
  ["CC(NC(=O)C(Cc1ccccc1)NC(=O)OCc1ccccc1)C(=O)CF (stereo unspecified)", 94.9],
  ["C=CCc1ccc(OC(C)=O)c(OC)c1 [Eugenyl acetate]", 91.6],
  ["CNC(=O)c1cc(Oc2ccc(NC(=O)Nc3ccc(Cl)c(C(F)(F)F)c3)c(F)c2)ccn1 [Regorafenib (BAY 73-4506)]", 22.8],
  ["CNC(=O)c1cc(COc2nnc(Nc3ccc(Cl)cc3)c3ccoc23)ccn1 [Telatinib (BAY 57-9352)]", 99.5],
  ["CCCCC(CC)COC(=O)C=Cc1ccc(OC)cc1 (stereo unspecified) [Octinoxate]", 93.4],
  ["O=C(N/N=C/c1cc(O)c(O)cc1O)c1cc2ccccc2cc1O [Dyngo-4a]", 79.3],
  ["CCCCC(C=O)NC(=O)C(CC(C)C)NC(=O)C(CC(C)C)NC(C)=O (stereo unspecified)", 1.17],
  ["O=C(Nc1cccc(C(F)(F)F)c1)Nc1cc(S(=O)(=O)NC2CC2)ccc1-c1ccsc1", 95],
  ["CC[C@H]1OC(=O)C[C@@H](O)[C@H](C)[C@@H](O[C@@H]2O[C@H](C)[C@@H](O)[C@H](N(C)C)[C@H]2O)[C@@H](CCN2C[C@H](C)C[C@H](C)C2)C[C@@H](C)C(=O)/C=C/C(C)=C/[C@@H]1CO[C@@H]1O[C@H](C)[C@@H](O)[C@@H](OC)[C@H]1OC [Tilmicosin phosphate]", 112],
  ["C[C@@H]1COCCN1c1cc(C2(S(C)(=O)=O)CC2)nc(-c2cccc3[nH]ccc23)n1", 18.7],
  ["CC(C)Nc1cc(-c2c[nH]c(C(=O)N[C@H](CO)c3cccc(Cl)c3)c2)c(Cl)cn1", 37.6],
  ["CC[C@H]1OC(=O)C[C@@H](O)[C@H](C)[C@@H](O[C@@H]2O[C@H](C)[C@@H](O[C@H]3C[C@@](C)(O)[C@@H](O)[C@H](C)O3)[C@H](N(C)C)[C@H]2O)[C@@H](CC=O)C[C@@H](C)C(=O)/C=C/C(C)=C/[C@@H]1CO[C@@H]1O[C@H](C)[C@@H](O)[C@@H](OC)[C@H]1OC [Tylosin]", 112],
  ["O=C1CC[C@@H](C(=O)N2CSC[C@H]2C(=O)O)N1 [Pidotimod]", 104],
  ["COC(=O)c1cc(OC)c(O)c(OC)c1 [Methyl syringate]", 101],
  ["CC[C@@]1(O)C(=O)OCc2c1cc1n(c2=O)Cc2cc3c(CN(C)C)c(O)ccc3nc2-1 [Topotecan HCl]", 8.46],
  ["CC(C)(OCc1nn(Cc2ccccc2)c2ccccc12)C(=O)O [Bindarit]", 107],
  ["O=C(O)c1c[nH]c2ccccc12 [Indole-3-carboxylic acid]", 114],
  ["CCOc1ccc(Cc2cc([C@@H]3O[C@H](CO)[C@@H](O)[C@H](O)[C@H]3O)ccc2Cl)cc1 [Dapagliflozin]", 105],
  ["CC(=O)N[C@@H](CC(C)C)C(=O)N[C@@H](CC(C)C)C(=O)N[C@H](C=O)CCCNC(=N)N [Leupeptin Hemisulfate]", 97.7],
  ["COC(=O)C1=C(C)NC(C)=C(C(=O)OCCN2CCN(C(c3ccccc3)c3ccccc3)CC2)C1c1cccc([N+](=O)[O-])c1 (stereo unspecified) [Manidipine dihydrochloride (CV-4093)]", 46.8],
  ["CCOc1cc(N)c(Cl)cc1C(=O)NCC1CN(Cc2ccc(F)cc2)CCO1 (stereo unspecified) [Mosapride citrate]", 82.3],
  ["COc1cc2c(cc1O)CC[C@@H]1[C@@H]2CC[C@]2(C)[C@@H](O)CC[C@@H]12 [2-Methoxyestradiol]", 13.6],
  ["Nc1[nH]cnc2ncnc1-2 [Adenine sulfate]", 112],
  ["C/C(O)=C(\\C#N)C(=O)Nc1ccc(C(F)(F)F)cc1 [Teriflunomide]", 87.1],
  ["CC(C)(C)C(=O)N1N=CC[C@H]1c1ccccc1", 103]
]}

These measurements were taken from the supplement of paper PMC10981050.
